# System Under Test: T1, huIL-18Rβ-HisAvi (human, UniProt O95256 20-356, biotinylated in the Octet blocking assay)
# T1 construct: Soluble analyte in all SPR runs; captured on streptavidin sensors in the Octet assay; also called human IL-18Rβ; human IL-18Rβ-Avi-His
# T1 sequence: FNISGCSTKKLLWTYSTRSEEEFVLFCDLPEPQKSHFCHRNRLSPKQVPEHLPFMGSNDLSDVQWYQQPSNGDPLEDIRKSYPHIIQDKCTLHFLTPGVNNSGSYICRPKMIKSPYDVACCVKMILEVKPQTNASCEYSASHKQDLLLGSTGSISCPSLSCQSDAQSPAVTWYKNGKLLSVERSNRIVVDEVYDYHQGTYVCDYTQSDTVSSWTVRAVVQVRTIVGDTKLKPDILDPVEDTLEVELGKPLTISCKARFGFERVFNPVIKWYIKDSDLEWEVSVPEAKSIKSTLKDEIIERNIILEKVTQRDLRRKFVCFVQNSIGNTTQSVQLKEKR
# Experiment Description: SPR T200, mAb on anti-hFc, 37C, pH 6
Readout: pKd
pKd here is simply -log10 of the concentration when that concentration is written in mol/L.

Enquiry: Please list pKd recorded for the binder P21-V1 (antibody, human IgG1, kappa, V domains shown, Variant of P21) VH: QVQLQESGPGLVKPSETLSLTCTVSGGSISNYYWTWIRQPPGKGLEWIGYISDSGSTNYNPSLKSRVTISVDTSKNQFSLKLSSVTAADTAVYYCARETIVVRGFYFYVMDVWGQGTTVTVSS VL: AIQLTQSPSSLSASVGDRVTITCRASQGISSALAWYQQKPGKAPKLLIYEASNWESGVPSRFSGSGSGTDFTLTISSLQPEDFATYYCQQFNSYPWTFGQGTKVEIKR
Return: 9.43
